- protocol text: Rate constant (k) of clearance from isolated perfused rat liver (IPRL)
- Assay type: ADME
recorded endpoint: k el (s⁻¹)

compound=CCN(C)c1c(N[C@@H](Cc2ccc(NC(=O)c3c(Cl)cncc3Cl)cc2)C(=O)O)c(=O)c1=O recorded_endpoint="k el" recorded_value=0.00136
compound=CCN(CC)c1c(N[C@@H](Cc2ccc(-c3c(OC)cccc3OC)cc2)C(=O)O)c(=O)c1=O recorded_endpoint="k el" recorded_value=0.00108
compound=CCCN(C)c1c(N[C@@H](Cc2ccc(NC(=O)c3c(Cl)cncc3Cl)cc2)C(=O)O)c(=O)c1=O recorded_endpoint="k el" recorded_value=0.00125
compound=O=C(Nc1ccc(C[C@H](/N=c2/c(N3CCSCC3)c(O)c2=O)C(=O)O)cc1)c1c(Cl)cncc1Cl recorded_endpoint="k el" recorded_value=0.00158
compound=O=C(Nc1ccc(C[C@H](/N=c2/c(N3CCCCC3)c(O)c2=O)C(=O)O)cc1)c1c(Cl)cncc1Cl recorded_endpoint="k el" recorded_value=0.00131
compound=C=CC/N=c1\c(O)c(O)\c1=N/[C@@H](Cc1ccc(NC(=O)c2c(Cl)cncc2Cl)cc1)C(=O)O recorded_endpoint="k el" recorded_value=0.000111
compound=O=C(Nc1ccc(C[C@H](/N=c2/c(N3CCOCC3)c(O)c2=O)C(=O)O)cc1)c1c(Cl)cncc1Cl recorded_endpoint="k el" recorded_value=0.00139
compound="CCC(C)/N=c1\\c(O)c(O)\\c1=N/[C@@H](Cc1ccc(NC(=O)c2c(Cl)cncc2Cl)cc1)C(=O)O (stereo partly drawn)" recorded_endpoint="k el" recorded_value=0.000861
